Test system: advanced glycation endproduct (AGE) formation in BSA/MGO model system
Assay: Inhibition of AGE formation, BSA/MGO model system
Assay type: biochemical
Details: BSA/MGO, fluorescence, linear regression; read-out: IC50 against AGE formation, BSA/MGO Model System
Counter-ions that a name gives are not always drawn.
Rule for this label: 1 means IC50 is less than 400 µM; -1 means IC50 is at least 400 µM.

COMPOUND | ASSIGNED_CLASS
N=C(N)NN [AG, aminoguanidine hydrochloride, reference compound] | -1
O=c1c(O)c(-c2ccc(O)c(O)c2)oc2cc(O)cc(O)c12 | -1
O=c1c(O)c(-c2ccc(O[C@@H]3O[C@H](CO)[C@@H](O)[C@H](O)[C@H]3O)c(O)c2)oc2cc(O)cc(O)c12 [Q4′G, quercetin-4′-O-β-glucoside] | 1
O=c1c(O[C@@H]2O[C@H](CO)[C@@H](O)[C@H](O)[C@H]2O)c(-c2ccc(O[C@@H]3O[C@H](CO)[C@@H](O)[C@H](O)[C@H]3O)c(O)c2)oc2cc(O)cc(O)c12 [Q3,4′G, quercetin-3,4′-di-O-β-glucoside] | 1
C[C@@H]1O[C@@H](OC[C@H]2O[C@@H](Oc3c(-c4ccc(O)c(O)c4)oc4cc(O)cc(O)c4c3=O)[C@H](O)[C@@H](O)[C@@H]2O)[C@H](O)[C@H](O)[C@H]1O [Ru, quercetin-3-O-rutinoside] | -1
